Reference for the values: patent US8148391B2

Molecular target: baculovirus-expressed ALK (Homo sapiens)
Construct: host or cells: baculovirus expression system
Assay: ALK Kinase Assay (ELISA-type, time-resolved fluorescence)
Type: biochemical
Settings: 1 μM ATP (Km level), 30 ng/ml ALK, 37° C., 15 minutes; read-out: ALK Activity (ALK kinase inhibition, IC50 class)
pIC50: −log10 of the molar value.
QUANTITY: pIC50

* CN1C(=O)CCC(C)(C)c2cc(Nc3ncc(Cl)c(Nc4ccccc4S(=O)(=O)N(C)C)n3)ccc21 [Example 1325] | > 7.00
* CC(C)S(=O)(=O)c1ccccc1Nc1nc(Nc2ccc3c(c2)CCC(N2CCOCC2)CC3)ncc1Cl (stereo not drawn) [Example 1036] | > 7.00
* CCN1C(=O)C(N(C)C)CCc2c1ccc(Nc1ncc(Cl)c(Nc3ccccc3S(=O)(=O)N(C)C)n1)c2OC (stereo not drawn) [Example 1348] | > 7.00
* COCCN1CCc2ccc(Nc3ncc(Cl)c(Nc4ccccc4C(=O)NCCN(C)C)n3)cc2CC1 [Example 1397] | 6.00 to 7.00
* CN1C(=O)CCC(C)(C)c2cc(Nc3ncc(Cl)c(Nc4ccccc4-n4cccn4)n3)ccc21 [Example 1323] | > 7.00
* CCNC(=O)c1ccccc1Nc1nc(Nc2cc3c(cc2OC)CCN(CC(=O)NC)CC3)ncc1Cl [Example 1115] | > 7.00
* COc1cc2c(cc1Nc1ncc(Cl)c(Nc3ccc(N(C)C)cc3OC)n1)CCN(Cc1nccn1C)CC2 [Example 1173] | > 7.00
* COc1cccc(C(=O)NCC#N)c1Nc1nc(Nc2ccc3c(c2)CCCC(=O)N3C)ncc1Cl [Example 1065] | < 5.00
* COCCOc1ccc(Nc2nc(Nc3cc4c(cc3OC)CCN(CCS(C)(=O)=O)CC4)ncc2Cl)c(OC)c1 [Example 1168] | > 7.00
* C#CCNC(=O)c1cccc(F)c1Nc1nc(Nc2ccc3c(c2)OCCCN3C(=O)OCCCN(C)C)ncc1Cl [Example 1427] | 6.00 to 7.00
* COCCN1CCc2cc(Nc3ncc(Cl)c(Nc4cc(C(N)=O)ccc4OC)n3)c(OC)cc2CC1 [Example 1140] | 5.00 to 6.00
* COc1ccc2c(c1Nc1ncc(Cl)c(Nc3ccccc3-n3cccn3)n1)CCC(N1CCOCC1)CC2 (stereo not drawn) [Example 1071] | 6.00 to 7.00
* CNC(=O)c1cc(F)cc(F)c1Nc1nc(Nc2ccc3c(c2)CCN(CCOC)CC3)ncc1Cl [Example 1277] | 6.00 to 7.00
* CNC(=O)c1ccccc1Nc1nc(Nc2ccc3c(c2)CNC(=O)CCN3C(=O)C(F)(F)F)ncc1Cl [Example 1301] | > 7.00
* CNC(=O)c1cc(F)cc(F)c1Nc1nc(Nc2ccc3c(c2)NC(=O)CCC3)ncc1Cl [Example 1278] | > 7.00

* * *

Listed here are compounds together with their documented IC50.
Molecular target: baculovirus-expressed ALK (Homo sapiens)
Construct: host or cells: baculovirus expression system
Experiment: ALK Kinase Assay (ELISA-type, time-resolved fluorescence)
Format: biochemical
Details: 1 μM ATP (Km level); read-out: ALK Activity (ALK Kinase Inhibition, IC50)
QUANTITY: IC50

* O=C1CCCc2cc(Nc3ncc(Cl)c(Nc4ccccc4-c4nc(C(F)(F)F)c[nH]4)n3)ccc2N1 | 100 to 1000 nM
* COc1cc2c(cc1Nc1ncc(Cl)c(Nc3ccc(N4CCN(C(C)C)CC4)c4c3C(=O)N(C)C4)n1)CCN(CC(=O)N(C)C)CC2 | < 100 nM
* CNC(=O)c1cccc(F)c1Nc1nc(Nc2ccc3c(c2)CCN(C(=O)C2COCCO2)CC3)ncc1Cl (stereo not drawn) | < 100 nM
* CCN1CCc2ccc(Nc3ncc(Cl)c(Nc4cccc(OCC#N)c4)n3)cc2CC1 | < 100 nM
* CCN1C(=O)CN(CC(=O)N(C)C)Cc2cc(OC)c(Nc3ncc(Cl)c(Nc4ccc(N5CCOCC5)cc4OC)n3)cc21 | 100 to 1000 nM
* CNC(=O)c1ccccc1Nc1nc(Nc2ccc3c(c2)CNCCS3)ncc1Cl | < 100 nM
* CNC(=O)c1ccccc1Nc1nc(Nc2ccc3c(c2)OCCCO3)ncc1Cl | < 100 nM
* COc1c(Nc2ncc(Cl)c(Nc3ccccc3S(=O)(=O)N3CCCC3)n2)ccc2c1CCC(NCCO)CC2 (stereo not drawn) | < 100 nM
* CNC(=O)c1cccc(F)c1Nc1nc(Nc2ccc3c(c2)N(CCOC)C(=O)CCC3)ncc1C(F)(F)F | < 100 nM
* CCN1C(=O)CCCc2cc(Nc3ncc(Cl)c(Nc4ccccc4-c4nccn4C)n3)c(OC)cc21 | < 100 nM
* COc1c(Nc2ncc(Cl)c(N[C@H]3[C@@H](C(N)=O)[C@@H]4C=C[C@H]3C4)n2)ccc2c1CC[C@@H](N1CCOCC1)CC2 | < 100 nM
* COc1ccc(Nc2nc(Nc3ccc4c(c3)CCC(N3CCOCC3)CC4)ncc2Cl)c(-n2cccn2)c1 (stereo not drawn) | < 100 nM
* Cn1ccnc1-c1ccccc1Nc1nc(Nc2ccc3c(c2)CCC(NCC(F)(F)F)CC3)ncc1Cl (stereo not drawn) | < 100 nM
* CNC(=O)CN1CCc2cc(Nc3ncc(Cl)c(Nc4ccc(N5CCN(C)CC5)c(C)c4)n3)c(OC)cc2CC1 | < 100 nM
* COc1ccc(Nc2nc(Nc3ccc4c(c3)CCN(CC3COCCO3)CC4)ncc2Cl)c(-n2cccn2)c1 (stereo not drawn) | < 100 nM

* * *

Target: c-Met (cytoplasmic domain) (Homo sapiens)
Construct: 10 ng/mL c-Met (cytoplasmic domain, Invitrogen Corporation #PV3143); purchased Invitrogen Corporation PV3143
Sequence (P08581 956-1390 limits assumed): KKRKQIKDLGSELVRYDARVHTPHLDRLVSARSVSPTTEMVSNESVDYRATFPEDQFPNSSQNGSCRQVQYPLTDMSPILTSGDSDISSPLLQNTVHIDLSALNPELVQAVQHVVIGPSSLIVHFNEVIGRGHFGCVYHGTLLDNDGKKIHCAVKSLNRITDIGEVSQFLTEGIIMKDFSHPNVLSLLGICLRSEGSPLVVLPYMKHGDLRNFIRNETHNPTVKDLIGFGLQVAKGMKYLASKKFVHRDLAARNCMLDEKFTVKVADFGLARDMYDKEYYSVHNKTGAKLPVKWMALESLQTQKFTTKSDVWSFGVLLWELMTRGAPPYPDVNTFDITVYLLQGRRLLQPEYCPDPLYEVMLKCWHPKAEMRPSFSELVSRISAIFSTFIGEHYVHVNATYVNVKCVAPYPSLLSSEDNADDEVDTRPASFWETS
Assay: c-Met Kinase Assay (same methods as for ALK, with modifications)
Format: biochemical
Settings: 1 μM ATP (Km level); read-out: cMet Activity (c-Met Kinase Inhibition, IC50)
pIC50: −log10 of the molar value.
QUANTITY: pIC50

- COc1ccc(Nc2nc(Nc3cc4c(cc3OC)CCN(CC(=O)N(C)C)CC4)ncc2Cl)c(N(C)C)c1: < 5.00
- CNC(=O)c1ccccc1Nc1nc(Nc2cc3c(cc2OC)CCN(CC(F)F)CC3)ncc1Cl: 5.00 to 6.00
- CNC(=O)c1cccc(C)c1Nc1nc(Nc2ccc3c(c2)CCN(CCOC)CC3)ncc1C(F)(F)F: > 7.00
- COc1cc2c(cc1Nc1ncc(Cl)c(N[C@@H]3CCCC[C@H]3NS(C)(=O)=O)n1)CCN(CC(F)F)CC2: < 5.00
- CCN1CCc2cc(Nc3ncc(Cl)c(N[C@H]4[C@@H](C(N)=O)[C@@H]5C=C[C@H]4C5)n3)c(OC)cc2CC1: < 5.00
- COCCN1CCc2ccc(Nc3ncc(C(F)(F)F)c(N[C@H]4[C@@H](C(N)=O)[C@@H]5C=C[C@H]4C5)n3)cc2CC1: > 7.00
- COc1cc2c(cc1Nc1ncc(Cl)c(Nc3ccc(N4CCN(C5CCN(C)CC5)CC4)cc3OC)n1)CCN(CC(=O)N(C)C)CC2: < 5.00
- COc1cc2c(cc1Nc1ncc(Cl)c(Nc3ccc(N4CCN(C)CC4)cc3OC)n1)CCN(CC(=O)N(C)C)CC2: < 5.00
- COCC(COC)N1CCc2cc(Nc3ncc(Cl)c(Nc4ccccc4S(=O)(=O)C(C)C)n3)c(OC)cc2CC1: < 5.00
- COCCNC1CCCc2c(ccc(Nc3ncc(Cl)c(Nc4ccccc4S(=O)(=O)N(C)C)n3)c2OC)C1 (stereo not drawn): < 5.00
- COc1cc2c(cc1Nc1ncc(Cl)c(Nc3ccc(N(C)C)cc3-n3cccn3)n1)CCN(CC(=O)N(C)C)CC2: < 5.00
- CNC(=O)c1cccc(F)c1Nc1nc(Nc2ccc3c(c2)N(CCOC)C(=O)CCC3)ncc1C(F)(F)F: > 7.00
- CNC(=O)c1ccccc1Nc1nc(Nc2ccc3c(c2)CNCCS3)ncc1Cl: > 7.00
- COc1cc(N2CCOCC2)ccc1Nc1nc(Nc2cccc3c2OCCCC3)ncc1Cl: < 5.00
- CN1C(=O)CCCc2cc(Nc3ncc(Cl)c(Nc4ccccc4-c4nccn4C)n3)ccc21: 6.00 to 7.00

* * *

Molecular target: baculovirus-expressed ALK (Homo sapiens, UniProt Q9UM73)
Construct: host or cells: baculovirus expression system
Sequence (Q9UM73 19-1620): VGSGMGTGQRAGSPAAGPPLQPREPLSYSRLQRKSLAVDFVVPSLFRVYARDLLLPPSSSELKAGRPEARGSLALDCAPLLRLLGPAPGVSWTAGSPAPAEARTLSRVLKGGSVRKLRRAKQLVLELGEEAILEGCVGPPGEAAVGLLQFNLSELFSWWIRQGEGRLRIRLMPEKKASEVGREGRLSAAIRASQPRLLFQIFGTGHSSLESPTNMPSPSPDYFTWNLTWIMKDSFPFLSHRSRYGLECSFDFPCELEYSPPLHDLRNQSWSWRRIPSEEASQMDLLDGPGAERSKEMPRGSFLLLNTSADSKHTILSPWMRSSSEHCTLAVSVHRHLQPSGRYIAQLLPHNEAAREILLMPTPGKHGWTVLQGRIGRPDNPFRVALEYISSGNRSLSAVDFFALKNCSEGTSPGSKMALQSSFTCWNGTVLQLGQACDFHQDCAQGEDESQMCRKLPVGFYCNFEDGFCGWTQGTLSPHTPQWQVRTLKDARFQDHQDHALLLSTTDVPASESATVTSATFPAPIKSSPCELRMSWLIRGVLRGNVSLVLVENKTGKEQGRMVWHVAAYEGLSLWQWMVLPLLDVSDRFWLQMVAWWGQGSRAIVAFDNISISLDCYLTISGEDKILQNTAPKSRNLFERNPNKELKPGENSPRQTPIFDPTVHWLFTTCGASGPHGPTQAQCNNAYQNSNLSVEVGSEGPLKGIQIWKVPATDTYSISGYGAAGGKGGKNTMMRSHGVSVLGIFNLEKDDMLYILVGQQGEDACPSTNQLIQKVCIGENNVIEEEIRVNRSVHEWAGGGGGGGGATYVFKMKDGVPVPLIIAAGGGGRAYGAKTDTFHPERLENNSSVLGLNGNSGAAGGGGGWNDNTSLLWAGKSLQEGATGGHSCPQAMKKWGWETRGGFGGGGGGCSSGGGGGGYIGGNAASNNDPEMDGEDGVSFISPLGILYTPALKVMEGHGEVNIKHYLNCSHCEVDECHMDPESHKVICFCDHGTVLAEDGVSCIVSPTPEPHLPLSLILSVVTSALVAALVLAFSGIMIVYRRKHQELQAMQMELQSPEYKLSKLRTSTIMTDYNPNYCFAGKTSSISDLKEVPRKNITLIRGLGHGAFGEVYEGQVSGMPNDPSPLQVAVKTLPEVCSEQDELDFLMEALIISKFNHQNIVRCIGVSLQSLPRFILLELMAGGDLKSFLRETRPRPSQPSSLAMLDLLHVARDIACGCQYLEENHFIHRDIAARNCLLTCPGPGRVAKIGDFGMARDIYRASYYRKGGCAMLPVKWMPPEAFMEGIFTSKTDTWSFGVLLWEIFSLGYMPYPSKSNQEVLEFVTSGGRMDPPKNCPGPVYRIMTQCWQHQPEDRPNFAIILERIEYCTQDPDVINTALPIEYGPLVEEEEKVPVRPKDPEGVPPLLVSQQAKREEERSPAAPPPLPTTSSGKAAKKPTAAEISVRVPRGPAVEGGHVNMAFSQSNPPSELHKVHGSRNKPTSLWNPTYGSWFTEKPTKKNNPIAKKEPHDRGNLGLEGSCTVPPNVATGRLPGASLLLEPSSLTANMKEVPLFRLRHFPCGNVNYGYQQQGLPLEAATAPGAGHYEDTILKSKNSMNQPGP
Experiment: ALK Kinase Assay (ELISA-type, time-resolved fluorescence)
Format: biochemical
Conditions: 1 μM ATP (Km level), 30 ng/ml ALK, 37° C., 15 minutes; read-out: ALK Activity (ALK kinase inhibition, IC50 class)
IC50 for assorted molecules
QUANTITY: IC50

* COc1cc2c(cc1Nc1ncc(Cl)c(Nc3ccccc3OC)n1)CCN(C(=O)CN(C)C)CC2 [Example 1131] | < 0.1 µM
* CCN1C(=O)[C@H](N2CCOCC2)CCc2c1ccc(Nc1ncc(Cl)c(N[C@H]3[C@@H](C(N)=O)[C@@H]4C=C[C@H]3C4)n1)c2OC (single isomer, unassigned) [Example 1344] | < 0.1 µM
* CCN1C(=O)CCCc2ccc(Nc3ncc(Cl)c(Nc4cccc(CCC#N)c4)n3)cc21 [Example 1223] | 0.1 to 1 µM
* CCOC(=O)N1CCCOc2ccc(Nc3ncc(Cl)c(Nc4ccsc4C(=O)NC)n3)cc21 [Example 1411] | 0.1 to 1 µM
* CN(CCC#N)c1cccc(F)c1Nc1nc(Nc2ccc3c(c2)C(C)(C)CCC(=O)N3)ncc1Cl [Example 1266] | < 0.1 µM
* COc1cc2c(cc1Nc1ncc(Cl)c(Nc3ccccc3S(C)(=O)=O)n1)CCN(CC(N)=O)CC2 [Example 1143] | < 0.1 µM
* CNC(=O)c1cccc(F)c1Nc1nc(Nc2ccc3c(c2)NC(=O)C(N)CC3(C)C)ncc1Cl (centres unmarked) [Example 1272] | < 0.1 µM
* COCCN1CCc2ccc(Nc3ncc(Cl)c(Nc4c(F)cccc4C(=O)NCCC#N)n3)cc2CC1 [Example 1043] | 0.1 to 1 µM
